Reference source for all entries: ChEMBL document CHEMBL1140665

// reported Activity per item
# System: Oryza sativa
# Assay procedure: Growth promoting activity in Oryza sativa assessed as shoot length at 62.5 ppm on day 5
# Assay type: functional
Your reply should be a number followed by the unit it is expressed in.

Cn1cc(Cc2cn(C)c3ccccc23)c2ccccc21
10.7 mm
COc1ccc2[nH]cc(Cc3c[nH]c4ccc(OC)cc34)c2c1
15.3 mm

Task: Entry `Cc1[nH]c2ccccc2c1Cc1c(C)[nH]c2ccccc12` : reported Activity = ?
Result: 19.6 mm

Task: Could you tell me which Activity is on file for `Brc1ccc2[nH]cc(Cc3c[nH]c4ccc(Br)cc34)c2c1` ?
Result: 11 mm

Task: Reported Activity for c1ccc2c(Cc3c[nH]c4ccccc34)c[nH]c2c1 [ARUNDINE] : what is it?
Result: 13.4 mm

Task: // Activity lookup, key: `Cn1c(-c2ccccc2)c(Cc2c(-c3ccccc3)n(C)c3ccccc23)c2ccccc21`
Result: 15.4 mm

====

List of Activity values.
# System: Oryza sativa
# Assay procedure: Growth promoting activity in Oryza sativa assessed as root length at 250 ppm on day 5
# Type: functional
Numeric only. Scale: mm

c1ccc(-c2[nH]c3ccccc3c2Cc2c(-c3ccccc3)[nH]c3ccccc23)cc1
34.2
COc1ccc2c(c1)c(Cc1cn(C)c3ccc(OC)cc13)cn2C
26.72
Cn1cc(Cc2cn(C)c3ccccc23)c2ccccc21
22.52

Task: Requested read-out: Activity. Entry: `Cn1cc(Cc2cn(C)c3ccc(Br)cc23)c2cc(Br)ccc21`
Result: 18.56

====

# Test system: Oryza sativa
# Assay procedure: Growth promoting activity in Oryza sativa assessed as root length at 62.5 ppm on day 5
# Assay type: functional
compounds and their reported Activity
State the answer as a number, implicitly in mm.

Task: Lab note: need Activity for `Brc1ccc2[nH]cc(Cc3c[nH]c4ccc(Br)cc34)c2c1` on Oryza sativa, anyone have it?
Result: 21.1

Task: Hi! What's the reported Activity for c1ccc2c(Cc3c[nH]c4ccccc34)c[nH]c2c1 [ARUNDINE] on Oryza sativa?
Result: 26.3

Task: Oryza sativa / Activity / `Cn1cc(Cc2cn(C)c3ccc([N+](=O)[O-])cc23)c2cc([N+](=O)[O-])ccc21` : value?
Result: 18.9

Task: Oryza sativa / Activity / `Cc1[nH]c2ccccc2c1Cc1c(C)[nH]c2ccccc12` : value?
Result: 42.8

Task: Please provide the recorded Activity for `Cn1cc(Cc2cn(C)c3ccccc23)c2ccccc21` , tested on Oryza sativa.
Result: 23.5

====

Some compounds, each annotated with its measured Activity.
# System: Oryza sativa
# Assay procedure: Growth promoting activity in Oryza sativa assessed as shoot length at 1000 ppm on day 5
# Assay type: functional

Observe how each entry below is paired with its result.
Cn1cc(Cc2cn(C)c3ccc(Br)cc23)c2cc(Br)ccc21
5.92 mm
Cn1cc(Cc2cn(C)c3ccc([N+](=O)[O-])cc23)c2cc([N+](=O)[O-])ccc21
5.76 mm
Cn1cc(Cc2cn(C)c3ccccc23)c2ccccc21
6.1 mm
c1ccc(-c2[nH]c3ccccc3c2Cc2c(-c3ccccc3)[nH]c3ccccc23)cc1
12.9 mm
O=C(O)Cc1c[nH]c2ccccc12 [INDOLE-3-ACETIC ACID]
5.28 mm

Task: Field request: Activity | item: `Brc1ccc2[nH]cc(Cc3c[nH]c4ccc(Br)cc34)c2c1`
Result: 6.7 mm

Task: // Activity lookup, key: `Cc1c(Cc2c(C)n(C)c3ccccc23)c2ccccc2n1C`
Result: 12 mm

Task: # lookup: Activity of `Cc1[nH]c2ccccc2c1Cc1c(C)[nH]c2ccccc12`
Result: 13.3 mm

Task: Recorded Activity of `COc1ccc2c(c1)c(Cc1cn(C)c3ccc(OC)cc13)cn2C` , please.
Result: 7.8 mm

Task: Find the recorded Activity belonging to `COc1ccc2[nH]cc(Cc3c[nH]c4ccc(OC)cc34)c2c1` and report it.
Result: 11.6 mm

Task: Any idea what its Activity is? The compound is c1ccc2c(Cc3c[nH]c4ccccc34)c[nH]c2c1 [ARUNDINE]
Result: 8.45 mm

Task: Consider the compound `Cn1c(-c2ccccc2)c(Cc2c(-c3ccccc3)n(C)c3ccccc23)c2ccccc21` and give its measured Activity.
Result: 10.8 mm

====

# System: Oryza sativa
# Assay procedure: Growth promoting activity in Oryza sativa assessed as shoot length at 62.5 ppm on day 5
# Format: functional
Measured Activity by item

Would you please look over these solved cases?
Cn1cc(Cc2cn(C)c3ccc([N+](=O)[O-])cc23)c2cc([N+](=O)[O-])ccc21
9.96 mm
O=C(O)Cc1c[nH]c2ccccc12
9.81 mm
Cc1c(Cc2c(C)n(C)c3ccccc23)c2ccccc2n1C
16.4 mm
COc1ccc2c(c1)c(Cc1cn(C)c3ccc(OC)cc13)cn2C
11.5 mm
c1ccc(-c2[nH]c3ccccc3c2Cc2c(-c3ccccc3)[nH]c3ccccc23)cc1
17.4 mm

Turning now to a further molecule:
Task: Data request, read-out Activity, for `Cn1cc(Cc2cn(C)c3ccc(Br)cc23)c2cc(Br)ccc21`
Result: 10.1 mm

====

# Tested on: Oryza sativa
# Assay procedure: Growth promoting activity in Oryza sativa assessed as root length at 62.5 ppm on day 5
# Type: functional
Listing: Activity of selected molecules
Could you give me the number in mm? Just the number is fine.

Cn1c(-c2ccccc2)c(Cc2c(-c3ccccc3)n(C)c3ccccc23)c2ccccc21
31.2
c1ccc(-c2[nH]c3ccccc3c2Cc2c(-c3ccccc3)[nH]c3ccccc23)cc1
35.9
Cc1c(Cc2c(C)n(C)c3ccccc23)c2ccccc2n1C
36.4
Cn1cc(Cc2cn(C)c3ccc(Br)cc23)c2cc(Br)ccc21
19.6
COc1ccc2[nH]cc(Cc3c[nH]c4ccc(OC)cc34)c2c1
30.6
COc1ccc2c(c1)c(Cc1cn(C)c3ccc(OC)cc13)cn2C
28.2

Let us move to another entry and its Activity.
Task: Using the record for O=C(O)Cc1c[nH]c2ccccc12 [INDOLE-3-ACETIC ACID] , report its Activity.
Result: 18.7
